Experimental system: DRB1*1101
Test method notes: binding to purified HLA
Value kind: IC50 (nM)

Please review the entries below; each comes with its answer.
INSERT INTO assay_data (binder, value_kind, units_of_measure, val) VALUES
  ('AAAYFVAAWTLHAAA [Y4.H12]', 'IC50', 'nM', 18),
  ('AAAHFVAAWTLHAAA [H4.H12]', 'IC50', 'nM', 14);

(P) AAAYFVAANTLHAAA [Y4.N9.H12]
(Q) AAAFFVAANTLHAAA [F4.N9.H12]
**Query** # compare IC50 for P vs Q ; return the one with the smaller value // return label of chosen record
**Result** P

# credit: patent US20160114035A1
